System: Cortical Cells
assay.name: Neurite Cell Outgrowth Assay, cortical cells
Assay type: cell-based
particulars: Rattus norvegicus; 50 nM; percent change over the vehicle response; NA = no change/not active
The compounds listed here are annotated with their activation at 0.05 µM.

{"columns": ["structure.as.smiles", "unit.label", "activation at 0.05 µM"],
 "data": [
  ["COc1ccc(Nc2nc(-c3ccccc3)[n+](-c3ccc(Cl)cc3)s2)cc1", "%", 18],
  ["Cc1ccc(-[n+]2sc(Nc3ccccc3C)nc2-c2ccccc2)cc1", "%", 9],
  ["Cc1ccccc1Nc1nc(-c2ccccc2)[n+](-c2ccccc2)s1", "%", 47],
  ["c1ccc(Nc2nc(-c3ccccc3)[n+](-c3ccccc3)s2)cc1", "%", 30]
]}
